- Test system: NCI-H1650
- TEST: relative viability (nuclei count vs DMSO), 5 days (fraction); higher = more cells survive
- CONDITIONS_USED: first compound 0.2 µM
MEASURE_NAME: relative viability

CN1CCN(CCOc2cc(OC3CCOCC3)c3c(Nc4c(Cl)ccc5c4OCO5)ncnc3c2)CC1 [Saracatinib] + O=C(c1cc(Cc2n[nH]c(=O)c3ccccc23)ccc1F)N1CCN(C(=O)C2CC2)CC1 [Olaparib] (partner 8 µM); 0.636
Cc1csc(=NC2CCCCC2)n1/N=C/c1ccc(O)c(O)c1O [MIM1] + Cc1cc(Nc2cc(N3CCN(C)CC3)nc(Sc3ccc(NC(=O)C4CC4)cc3)n2)n[nH]1 [Tozasertib] (partner 0.1 µM); 0.529
CN1CCN(CCOc2cc(OC3CCOCC3)c3c(Nc4c(Cl)ccc5c4OCO5)ncnc3c2)CC1 [Saracatinib] + CC(C)C[C@H](NC(=O)[C@H](Cc1ccccc1)NC(=O)c1cnccn1)B(O)O [Bortezomib] (partner 0.002 µM); 0.192
CN1CCN(CCOc2cc(OC3CCOCC3)c3c(Nc4c(Cl)ccc5c4OCO5)ncnc3c2)CC1 [Saracatinib] + COc1cccc2cc(-c3nc([C@H]4CC[C@H](C(=O)O)CC4)n4ncnc(N)c34)[nH]c12 [OSI-027] (partner 0.5 µM); 0.396

Values were extracted from the supplement of paper PMC10307832.
